- tgt: αVβ3 integrin (Homo sapiens, UniProt P05106+P06756)
- Construct: αVβ3-expressing cell lines are maintained by standard tissue culture techniques; endogenous in cells; host or cells: αVβ3-expressing cell lines
- Sequence (P06756 31-889 limits assumed): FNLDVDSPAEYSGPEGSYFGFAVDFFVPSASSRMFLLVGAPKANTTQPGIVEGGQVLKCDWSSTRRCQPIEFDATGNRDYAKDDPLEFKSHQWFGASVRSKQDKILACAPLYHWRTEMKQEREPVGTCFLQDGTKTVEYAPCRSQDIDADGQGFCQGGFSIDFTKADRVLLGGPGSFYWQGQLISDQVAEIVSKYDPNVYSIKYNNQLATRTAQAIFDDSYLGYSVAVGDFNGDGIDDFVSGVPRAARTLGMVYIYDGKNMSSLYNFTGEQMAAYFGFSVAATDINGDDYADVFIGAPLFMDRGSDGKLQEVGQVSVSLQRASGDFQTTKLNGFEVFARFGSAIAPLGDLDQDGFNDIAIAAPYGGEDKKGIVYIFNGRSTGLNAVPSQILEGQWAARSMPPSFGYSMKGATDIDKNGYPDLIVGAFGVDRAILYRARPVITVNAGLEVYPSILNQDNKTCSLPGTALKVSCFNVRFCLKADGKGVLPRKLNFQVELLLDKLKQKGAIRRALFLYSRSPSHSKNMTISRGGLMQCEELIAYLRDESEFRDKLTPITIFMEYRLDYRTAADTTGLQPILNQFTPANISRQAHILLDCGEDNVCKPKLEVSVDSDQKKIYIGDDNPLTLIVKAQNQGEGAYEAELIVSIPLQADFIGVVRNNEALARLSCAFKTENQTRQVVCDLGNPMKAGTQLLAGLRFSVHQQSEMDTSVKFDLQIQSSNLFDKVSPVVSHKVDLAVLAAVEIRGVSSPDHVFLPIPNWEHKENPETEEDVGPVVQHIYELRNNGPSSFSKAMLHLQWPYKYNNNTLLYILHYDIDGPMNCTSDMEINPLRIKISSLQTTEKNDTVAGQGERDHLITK
- Sequence (P06756 891-1048 partner limits assumed): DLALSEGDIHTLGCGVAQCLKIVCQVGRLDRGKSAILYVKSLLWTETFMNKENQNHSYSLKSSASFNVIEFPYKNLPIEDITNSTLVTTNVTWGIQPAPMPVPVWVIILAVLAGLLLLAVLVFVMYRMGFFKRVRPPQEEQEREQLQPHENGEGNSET
- Sequence (P05106 27-788): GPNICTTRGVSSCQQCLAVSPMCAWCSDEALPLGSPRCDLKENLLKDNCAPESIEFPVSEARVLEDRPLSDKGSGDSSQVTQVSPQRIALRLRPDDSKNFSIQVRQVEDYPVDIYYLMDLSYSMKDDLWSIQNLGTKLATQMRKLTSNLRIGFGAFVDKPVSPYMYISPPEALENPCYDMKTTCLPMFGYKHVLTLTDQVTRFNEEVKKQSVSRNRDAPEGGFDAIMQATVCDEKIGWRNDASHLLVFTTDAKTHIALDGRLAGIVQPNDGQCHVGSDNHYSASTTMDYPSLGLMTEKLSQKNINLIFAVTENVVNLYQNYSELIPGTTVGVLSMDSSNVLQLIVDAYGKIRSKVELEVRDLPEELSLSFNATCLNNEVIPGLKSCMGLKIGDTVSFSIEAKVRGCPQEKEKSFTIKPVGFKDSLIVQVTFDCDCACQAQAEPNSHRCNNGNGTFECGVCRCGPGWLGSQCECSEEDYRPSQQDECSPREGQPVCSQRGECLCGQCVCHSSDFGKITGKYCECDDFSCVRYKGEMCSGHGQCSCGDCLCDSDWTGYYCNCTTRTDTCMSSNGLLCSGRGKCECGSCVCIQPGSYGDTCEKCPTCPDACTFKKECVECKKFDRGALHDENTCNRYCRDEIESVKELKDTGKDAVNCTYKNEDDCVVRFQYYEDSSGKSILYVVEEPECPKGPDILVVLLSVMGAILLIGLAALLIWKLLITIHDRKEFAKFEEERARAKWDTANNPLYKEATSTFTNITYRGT
- experiment_notes: Osteopontin-αVβ3 Cell Attachment Assay
- Format: cell-based
- Description: Osteopontin-αVβ3 Cell Attachment Assay The purpose of this assay is to measure the effect of various compounds on the RGD-dependent attachment of cells to osteopontin mediated by the αVβ3 integrin. […] Following the blocking period, wells are aspirated and washed once with D-PBS. […] Attachment Assay Incubation: […] of diluted test compound is added to osteopontin-coated wells (in triplicate) followed by […] of cell suspension; background cell attachment is determined in uncoated wells. […]
Where a name gives a salt, the structure may show the parent alone.
Measured IC50 values are reported for all entries that follow.
measured_attribute: IC50 (µM)

1) N=C(N)NCCOc1ccc(C(=O)NC(CC(=O)O)c2cccnc2)c(O)c1 (stereo not shown): 56
2) CCOC(=O)[C@H](CNC(=O)c1ccc(OCCNC2=NCCCN2)cc1O)NC(=O)OCc1ccccc1 [Example 277, hydrochloride]: 0.05
3) O=C(O)CC(NC(=O)c1ccc(OCCNc2ncccn2)cc1O)c1cccnc1 (stereo not shown): 86
4) O=C(O)CC(NC(=O)c1ccc(OCCNC2=NCCCN2)cc1O)c1cccnc1 (stereo not shown): 33
